biological target: SmMLCK (Homo sapiens (Human)); experiment: Dundee profiling
pIC50: −log10 of the molar value.
readout.name: pIC50

structure.smiles.string: CNc1nc(Nc2ccc(C(=O)N3CCOCC3)cc2OC)nc2[nH]cc(Cl)c12
measured.number: 7.09

---

molecular target: wild type LRRK2 (Homo sapiens (Human)); assay: LRRK2 enzyme kinase assay, wild type; type: biochemical; details: Table 3; read-out: Enzyme IC50 WT
Sequence (Q5S007 1326-2527): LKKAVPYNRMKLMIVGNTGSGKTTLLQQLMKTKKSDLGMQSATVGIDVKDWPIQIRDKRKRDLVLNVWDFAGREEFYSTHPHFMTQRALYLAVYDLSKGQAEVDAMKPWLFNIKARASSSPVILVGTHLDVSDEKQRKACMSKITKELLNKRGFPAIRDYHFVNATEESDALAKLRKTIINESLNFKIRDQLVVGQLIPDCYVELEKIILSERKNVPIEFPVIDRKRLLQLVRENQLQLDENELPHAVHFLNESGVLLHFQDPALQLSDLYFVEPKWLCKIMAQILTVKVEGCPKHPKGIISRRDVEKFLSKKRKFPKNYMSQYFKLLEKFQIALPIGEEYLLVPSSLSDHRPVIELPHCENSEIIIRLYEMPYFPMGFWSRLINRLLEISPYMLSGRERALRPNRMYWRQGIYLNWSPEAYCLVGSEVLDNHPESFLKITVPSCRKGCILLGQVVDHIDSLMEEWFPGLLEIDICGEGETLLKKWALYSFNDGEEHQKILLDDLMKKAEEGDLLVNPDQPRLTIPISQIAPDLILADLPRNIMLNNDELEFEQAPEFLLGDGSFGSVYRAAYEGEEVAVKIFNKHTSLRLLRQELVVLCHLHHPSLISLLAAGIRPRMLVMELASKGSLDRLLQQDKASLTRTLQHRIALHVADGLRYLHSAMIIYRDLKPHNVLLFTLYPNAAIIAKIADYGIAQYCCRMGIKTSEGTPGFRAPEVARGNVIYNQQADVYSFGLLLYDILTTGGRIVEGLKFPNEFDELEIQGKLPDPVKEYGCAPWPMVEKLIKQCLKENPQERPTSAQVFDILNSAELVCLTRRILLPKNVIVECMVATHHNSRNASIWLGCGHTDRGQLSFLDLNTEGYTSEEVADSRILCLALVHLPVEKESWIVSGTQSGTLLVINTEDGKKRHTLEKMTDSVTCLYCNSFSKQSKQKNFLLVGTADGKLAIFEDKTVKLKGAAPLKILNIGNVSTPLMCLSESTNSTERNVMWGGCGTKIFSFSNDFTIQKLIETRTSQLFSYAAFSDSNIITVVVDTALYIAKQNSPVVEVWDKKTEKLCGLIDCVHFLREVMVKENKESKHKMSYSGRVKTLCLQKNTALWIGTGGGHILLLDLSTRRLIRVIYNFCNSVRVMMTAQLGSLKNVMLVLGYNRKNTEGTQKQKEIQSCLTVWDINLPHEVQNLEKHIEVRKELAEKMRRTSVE
Reported IC50 values are given for each entry in this list.
readout.name: IC50 (nM)

compound: COc1cc(C(=O)N2CCOCC2)ccc1Nc1nc(OC)c2cn[nH]c2n1 [Compound 24]
readout.unit: nM
measured.number: 19.4

compound: CNc1nc(Nc2ccc(C(=O)N3CCOCC3)cc2OC)nc2[nH]cnc12 [Compound 21]
readout.unit: nM
measured.number: 35

compound: COc1cc(C(=O)N2CCOCC2)ccc1Nc1nc(OC)c2nc[nH]c2n1 [Compound 22]
readout.unit: nM
measured.number: 3
